measurementTarget: TRAF6/Uev1A/Ubc13 (Homo sapiens, UniProt Q9Y4K3)
Sequence (Q9Y4K3 1-522): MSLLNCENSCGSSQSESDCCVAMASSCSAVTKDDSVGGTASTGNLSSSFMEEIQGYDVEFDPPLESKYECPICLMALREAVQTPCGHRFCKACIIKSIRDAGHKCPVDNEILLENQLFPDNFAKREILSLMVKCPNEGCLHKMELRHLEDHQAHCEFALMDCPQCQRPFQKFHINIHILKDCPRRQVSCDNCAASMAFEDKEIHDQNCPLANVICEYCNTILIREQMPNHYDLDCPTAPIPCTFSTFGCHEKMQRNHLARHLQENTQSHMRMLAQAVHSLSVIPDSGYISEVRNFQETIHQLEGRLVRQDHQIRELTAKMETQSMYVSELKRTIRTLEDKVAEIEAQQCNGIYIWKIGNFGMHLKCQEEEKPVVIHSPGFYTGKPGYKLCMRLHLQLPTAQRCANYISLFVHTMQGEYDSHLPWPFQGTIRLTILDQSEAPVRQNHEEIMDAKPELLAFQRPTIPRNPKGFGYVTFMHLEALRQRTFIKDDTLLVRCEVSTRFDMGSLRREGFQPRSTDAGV
measurementDescription: TRAF6/Uev1A/Ubc13 plate-based ubiquitin ligase assay
# IC50 per record follows

# example entries with known answers
compound	IC50
O=S(=O)(Nc1cccc2ccccc12)c1c(Cl)cc(Nc2cccc3ccccc23)c2nonc12	1 to 20 µM
O=S(=O)(Nc1ccccc1OC(F)(F)F)c1ccc(Cl)c2nonc12	≥ 20 µM
O=S(=O)(c1ccc(Sc2cccc3ccccc23)c2nonc12)N1CCN(c2ccccc2)CC1	1 to 20 µM
N#CC1(c2ccccc2)CCN(c2ccc([N+](=O)[O-])c3nonc23)CC1	1 to 20 µM
COC(=O)c1ccc(Nc2ccc(S(=O)(=O)Nc3ccc(C(=O)OC)cc3)c3nonc23)cc1	≥ 20 µM
COc1cc(Nc2ccc(S(=O)(=O)Nc3cc(OC)c(Cl)cc3OC)c3nonc23)c(OC)cc1Cl [compound 349]	≥ 20 µM

Query: Bench note: what IC50 did "O=[N+]([O-])c1cc(Cl)c(Oc2ccc(S(=O)(=O)Nc3cccc4nonc34)cc2Cl)c(Cl)c1" show?
Result: 1 to 20 µM

Query: Now try "O=[N+]([O-])c1ccc(Sc2cccc(Cl)c2)c2nonc12" .
Result: 1 to 20 µM
